Please respond with reported melting point for every item in the list.
One number for each entry, in °C.

Examples with answers:
Noted for CC(O)CNCCN (stereo not given) : its melting point reads -50

For this compound ( "Nc1ccc(S(=O)(=O)NC(=O)c2ccccc2)cc1" ), measured melting point is 182

The compound identified as "CCCCCCCC(=O)CCCCCCC" registered its melting point at 43

Entry "CCC(=O)Oc1ccc(/C(CC)=C(\CC)c2ccc(OC(=O)CC)cc2)cc1" , melting point reported as 104

Entry "O=C(Cc1ccccc1)OC(=O)Cc1ccccc1" — recorded melting point = 73.3

Give one value of melting point per listed compound.
1. CCCCOC(=O)CCC
2. OCc1cccnc1
3. NCCCN1CCN(CCCN)CC1
4. BrCC(Br)CBr
5. O=C(CCl)C(Cl)(Cl)Cl
6. C=CCN(CC=C)c1c(C)cc(OC(=O)NC)cc1C
7. NC(=O)NC1NC(=O)NC1=O (stereo not given)
8. CC1(C)[C@H]2CC[C@]1(C)C(=O)[C@H]2O

[-91.5, -6.5, 15, 16.9, 65, 67, 238, 206]

Parameter requested: melting point. Apply to each item below.
1. CN(C)C(=O)CCCOC(=O)c1ccccc1
2. CC(C)(C)C(C)(C)C

1. 40.5
2. 101

Source listed as the OPERA property sets (Mansouri et al. 2018).
